- Tested on: HepG2 cells
- test description: HepG2 cytotoxicity assay
- Format: cell-based
- experimental setup: mean
readout: HepG2 cells mean TOX50 (µM)
// return numeric value only (unit: µM, not printed)

Examples with their reported HepG2 cells mean TOX50 follow.
compound	measured target	HepG2 cells mean TOX50, µM
CCOc1cc2ccccc2cc1CNCCCCCCNCc1cc2ccccc2cc1OCC.CS(=O)(=O)O	HepG2 cells	6.06
CC(C)(C)CNCC(C)(C)c1nc(-c2ccc(Cl)c(O)c2)c(-c2ccncc2)[nH]1.Cl	HepG2 cells	11.63
CN1CCN(c2cc3c(cc2Cl)CCN3C(=O)Nc2ccc(NC(=O)c3ccc(C(F)(F)F)cc3)cc2)CC1.Cl	HepG2 cells	3.99

Provide value of HepG2 cells mean TOX50 for this record tested with HepG2 cells: CN1CCN(CCCNCc2cccc(Nc3nccc(Nc4ccc(Oc5ccccc5)cc4)n3)c2)CC1
4.68

Provide value of HepG2 cells mean TOX50 for this record tested with HepG2 cells: COc1cc2nc(-c3ccc(Br)cc3)cc(N)c2cc1OC
4.95

Provide value of HepG2 cells mean TOX50 for this record tested with HepG2 cells: c1cc(Nc2nc(-c3ccc(-c4csc(Nc5ccncc5)n4)cc3)cs2)ccn1
2.26

Provide value of HepG2 cells mean TOX50 for this record tested with HepG2 cells: C#CCCOc1ccc2ccccc2c1CNCCCCCCNCc1c(OCCC#C)ccc2ccccc12
4.79

Provide value of HepG2 cells mean TOX50 for this record tested with HepG2 cells: CC(Cc1ccc(NS(=O)(=O)c2ccc(CC(C)NCCc3cccc(Cl)c3)cc2)cc1)NCCc1cccc(Cl)c1 (stereo not drawn)
4.37

Provide value of HepG2 cells mean TOX50 for this record tested with HepG2 cells: CS(=O)(=O)O.FC(F)(F)COc1ccc(CCNCCCCNCCc2ccc(OCC(F)(F)F)c3ccccc23)c2ccccc12
1.66

Provide value of HepG2 cells mean TOX50 for this record tested with HepG2 cells: Cc1cc2nc(N=C3NC4(c5ccccn5)NC(=Nc5nc6cc(C)c(C)cc6[nH]5)NC4(c4ccccn4)N3)[nH]c2cc1C.O=C(O)C(F)(F)F (stereo not drawn)
35.91

Provide value of HepG2 cells mean TOX50 for this record tested with HepG2 cells: CN1CCN(CCCNCc2ccccc2-c2cccc(CNCc3ccc4c(c3)OCO4)c2)CC1.O=C(O)C(F)(F)F
1.51

Provide value of HepG2 cells mean TOX50 for this record tested with HepG2 cells: Cl.c1ccc2c(Nc3ccc(OCCOCCOc4ccc(Nc5c6ccccc6nc6ccccc56)cc4)cc3)c3ccccc3nc2c1
5.59

Provide value of HepG2 cells mean TOX50 for this record tested with HepG2 cells: Cc1oc(-c2ccc(Cl)cc2)cc1C(=O)NCCC1CCN(CCCCCNC(=O)/C=C/c2ccc(Cl)c(Cl)c2)CC1
3.31

Provide value of HepG2 cells mean TOX50 for this record tested with HepG2 cells: CCOc1cc(CNCCCCCCNCc2cc(OCC)c(OCC)c3ccccc23)c2ccccc2c1OCC.CS(=O)(=O)O
2.00

Provide value of HepG2 cells mean TOX50 for this record tested with HepG2 cells: Cc1cc(OCCN2CCCCC2)ccc1NC(=O)c1cccc2c(=O)n(Cc3ccc(Cl)cc3)cnc12
4.17

Provide value of HepG2 cells mean TOX50 for this record tested with HepG2 cells: CCN1CCC2(c3cccc(OC)c3)Cc3nc4ccccc4c(-c4ccccc4)c3CC2C1 (stereo not drawn)
33.25

Provide value of HepG2 cells mean TOX50 for this record tested with HepG2 cells: CN(C)CCCNCc1ccc(-c2ccc(C(F)(F)F)cc2)cc1
4.90

Provide value of HepG2 cells mean TOX50 for this record tested with HepG2 cells: CCCOc1c(CCNCCCCNCCc2ccc3ccccc3c2OCCC)ccc2ccccc12.CS(=O)(=O)O
1.72

Provide value of HepG2 cells mean TOX50 for this record tested with HepG2 cells: COc1c(OC)c(OC)c2ccccc2c1CNCCCCCCNCc1c(OC)c(OC)c(OC)c2ccccc12.Cl
2.95

Provide value of HepG2 cells mean TOX50 for this record tested with HepG2 cells: COc1cc2nc(N3CCC(CNC(=O)c4ccc(-c5ccc(-c6noc(C)n6)cc5)cc4)CC3)nc(N)c2cc1OC
4.90

Provide value of HepG2 cells mean TOX50 for this record tested with HepG2 cells: CNCC(C)(C)c1nc(-c2ccc(Cl)c(O)c2)c(-c2ccncc2)[nH]1.Cl
13.52

Provide value of HepG2 cells mean TOX50 for this record tested with HepG2 cells: O=C(O)C(F)(F)F.O=S(=O)(c1ccccc1)n1ccc2cc(Nc3ncnc4cc(C#C[C@H]5CCCN5)sc34)ccc21
5.50

Provide value of HepG2 cells mean TOX50 for this record tested with HepG2 cells: CN(C)CCN(C)Cc1ccc(-c2ccc3c(Nc4ccc(Oc5ccccn5)cc4)ccnc3c2)o1
5.37
